Values compiled from patent US20250332173A1.

- Test system: MYB mRNA
- protocol-details: RT-qPCR splicing assay, MYB canonical junction (CJ) and alternative junction (AJ) mRNA
- Type: cell-based, human
- condition-set: Homo sapiens, read-out: MYB (decrease in CJ mRNA levels, IC50)
measure: IC50

Value of measured IC50 for the entry Cc1cn2nc(-c3ccc4c(=O)n(C5CCN(C6CCC6)C6(CC6)C5)ncc4n3)cc(C)c2n1 (stereo not shown) : 100 to 1000 nM

###

- System: HTT mRNA
- protocol-details: RT-qPCR splicing assay, HTT canonical junction (CJ) and alternative junction (AJ) mRNA
- Format: cell-based, human
- condition-set: Homo sapiens, increase in HTT alternative junction (AJ) mRNA, RT-qPCR; read-out: HTT AJ AC50
measure: AC50

Value of measured AC50 for the entry CN1CCC(n2ncc3nc(-c4cc5cn(C)nc5cc4O)ccc3c2=O)CC1 : 1000 to 10000 nM

Value of measured AC50 for the entry Cc1cn2nc(-c3ccc4c(=O)n(C5CCNCC5)cc(C)c4c3)cc(C)c2n1 : < 100 nM

Value of measured AC50 for the entry Cc1cn2nc(-c3ccc4c(=O)n(C5CC(C)N[C@H](C)C5)ncc4n3)cc(C)c2n1 (stereo in doubt) : 100 to 1000 nM

Value of measured AC50 for the entry Cc1cn2nc(-c3ccc4c(=O)n([C@H]5CCNC[C@H]5F)cnc4c3)cc(C)c2n1 : 100 to 1000 nM

###

What IC50 was measured for each of the following?
- Tested on: MYB mRNA
- protocol-details: RT-qPCR splicing assay, MYB canonical junction (CJ) and alternative junction (AJ) mRNA
- Format: cell-based, human
- condition-set: Homo sapiens; decrease in MYB canonical junction (CJ) mRNA, RT-qPCR; read-out: MYB CJ IC50

Value of measured IC50 for the entry Cc1cn2nc(-c3ccc4c(=O)n(C5CCNCC5)ncc4n3)cc(C)c2n1 : < 100 nM

Value of measured IC50 for the entry Cc1cn2cc(-c3ccc4c(=O)n(C5CCNCC5)ccc4n3)cc(C#N)c2n1 : 100 to 1000 nM

Value of measured IC50 for the entry Cc1cn2nc(-c3cc4ncn(C5CCNCC5)c(=O)c4cc3F)cc(C)c2n1 : 1000 to 10000 nM

Value of measured IC50 for the entry Cc1cn2cc(-c3ccc4c(=O)n(C5CCNCC5)cnc4c3)nc2c(C)n1 : 1000 to 10000 nM

Value of measured IC50 for the entry Cc1c(O)c(-c2ncc3c(=O)n(C4CNC4)ccc3n2)cc2cn(C)nc12 : 1000 to 10000 nM

Value of measured IC50 for the entry Cc1c(O)c(-c2ncc3c(=O)n([C@H]4CCNC5(CC5)C4)ccc3n2)cc2cn(C)nc12 : 100 to 1000 nM

Value of measured IC50 for the entry CN1CCC(Nc2ccc3c(=O)n(-c4ccc5cn(C)nc5c4)cnc3c2)CC1 : > 10000 nM

Value of measured IC50 for the entry Cc1cn2nc(-c3cc(C)c4c(=O)n(C5CCNC6(CC6)C5)ncc4c3)cc(C)c2n1 (centres unmarked) : < 100 nM

###

What pIC50 was measured for each of the following?
- System: MYB
- protocol-details: HiBiT protein abundance assay, MYB HiBiT K562 cell line
- Type: cell-based, human
- condition-set: HiBiT lytic detection, modified K562 cells, 24 hours, top dose 10 μM; read-out: Effect on protein abundance, MYB (IC50)
pIC50: −log10 of the molar value.

Value of measured pIC50 for the entry Cc1cn2nc(-c3ccc4c(=O)n([C@@H]5CCN(C)[C@H](C)C5)ncc4n3)cc(C)c2n1 : 6.00 to 7.00

Value of measured pIC50 for the entry Cn1cc2cc(-c3ccc4c(=O)n(C5CCNC6(CC6)C5)ncc4n3)c(O)cc2n1 (stereo not shown) : 6.00 to 7.00

Value of measured pIC50 for the entry Cc1cn2nc(-c3ccc4c(=O)n([C@@H]5CCNC6(CCC6)C5)ncc4n3)cc(C)c2n1 : 6.00 to 7.00

Value of measured pIC50 for the entry CCN1CCC(n2ncc3nc(-c4cc5cn(C)nc5cc4O)ccc3c2=O)CC1 : 5.00 to 6.00

###

- System: MYB
- protocol-details: HiBiT protein abundance assay, MYB HiBiT K562 cell line
- Type: cell-based, human
- condition-set: HiBiT K562 cell line, 24 hours, top dose 10 μM; read-out: Effect on protein abundance, MYB (IC50 category)
pIC50: −log10 of the molar value.
measure: pIC50

Value of measured pIC50 for the entry Cc1cn2nc(-c3cc(F)c4c(=O)n(C5CCNCC5)ccc4c3)cc(C)c2n1 : > 7.00

Value of measured pIC50 for the entry Cc1cn2nc(-c3ccc4c(=O)n(C5CCNC6(CC6)C5)ncc4c3)cc(C)c2n1 (stereo not drawn) : > 7.00

Value of measured pIC50 for the entry O=c1c2ccc(-c3cn[nH]c3)cc2ncn1C1CCNCC1 : 5.00 to 6.00

Value of measured pIC50 for the entry Cc1nc2c(o1)CN(c1cc(F)c3c(=O)n(C4CCNCC4)cnc3c1)CC2 : 5.00 to 6.00

Value of measured pIC50 for the entry Cn1cc2nc(-c3cc(O)c4c(=O)n(C5CCNC6(CC6)C5)ncc4c3)ccc2n1 (stereo not drawn) : 6.00 to 7.00

Value of measured pIC50 for the entry Cc1cn2nc(-c3cc(N)c4c(=O)n([C@H]5CCNC5)ccc4c3)cc(C)c2n1 : 5.00 to 6.00

Value of measured pIC50 for the entry CC[C@@H]1C[C@H](n2ncc3cc(-c4cc(C)c5nc(C)cn5n4)ccc3c2=O)CCN1 : 6.00 to 7.00

Value of measured pIC50 for the entry Cc1cn2cc(-c3ccc4c(=O)n(C5CCNCC5)cnc4c3)cc(Cl)c2n1 : 6.00 to 7.00

Value of measured pIC50 for the entry Cc1cn2cc(-c3cc(F)c4c(=O)n(C5CCNC6(CC6)C5)ccc4c3)cc(Cl)c2n1 (stereo not drawn) : > 7.00

Value of measured pIC50 for the entry Cc1cn2nc(-c3cc(C)c4c(=O)n(C5CCNCC5)cnc4c3)cc(C)c2n1 : > 7.00

Value of measured pIC50 for the entry Cc1cc(-c2cc3ccn(C4CCN(C)CC4)c(=O)c3cn2)cc2cn(C)nc12 : 6.00 to 7.00

Value of measured pIC50 for the entry Cc1cn2cc(-n3cnc4cc(N5CCNCC5)ccc4c3=O)cc(F)c2n1 : 6.00 to 7.00

Value of measured pIC50 for the entry Cc1c(O)c(-c2ccc3c(=O)n(C4CCNCC4)cc(C)c3n2)cc2cn(C)nc12 : > 7.00

Value of measured pIC50 for the entry Cn1cc2cc(-n3cnc4cc(C5=CCNCC5)ccc4c3=O)ccc2n1 : 5.00 to 6.00

Value of measured pIC50 for the entry CNC(=O)c1cc(-c2ccc3c(=O)n(C4CCNCC4)ccc3c2)nn2cc(C)nc12 : 5.00 to 6.00

Value of measured pIC50 for the entry Cc1c(O)c(-c2ncc3c(=O)n(C4CCN(C)CC4)ccc3n2)cc2cn(C)nc12 : 6.00 to 7.00

Value of measured pIC50 for the entry Cc1cn2cc(-c3cc(F)c4c(=O)n(C5CCNCC5)cc(C)c4c3)cc(F)c2n1 : > 7.00

Value of measured pIC50 for the entry Cc1cn2cc(-c3cc(F)c4c(=O)n([C@H]5CNC[C@H]5C)ccc4c3)cc(F)c2n1 : 5.00 to 6.00

Value of measured pIC50 for the entry Cc1cc(-c2ccc3c(c2)CCN(C2CCNCC2)C3=O)cc2cn(C)nc12 : 6.00 to 7.00

Value of measured pIC50 for the entry Cc1cc(-c2ccc3c(=O)n([C@@H]4CCNC[C@H]4F)ncc3c2)cc2cn(C)nc12 : 5.00 to 6.00

Value of measured pIC50 for the entry Cc1cc(-c2ccc3c(=O)n(C4CCNCC4)c(C)nc3c2)cc2cn(C)nc12 : 5.00 to 6.00

###

- System: MYB mRNA
- protocol-details: RT-qPCR splicing assay, MYB canonical junction (CJ) and alternative junction (AJ) mRNA
- Format: cell-based, human
- condition-set: Homo sapiens; increase in MYB alternative junction (AJ) mRNA, RT-qPCR; read-out: MYB AJ AC50
Where a name gives a salt, the structure may show the parent alone.
What AC50 was measured for each of the following?

Form: item Cc1cn2cc(-c3ncc4c(=O)n([C@@H]5CCNC(C)(C)C5)ccc4n3)cc(F)c2n1 [Compound 1496] ; test system MYB mRNA; AC50: 0.1 to 1 µM

Form: item Cc1cn2cc(-c3ccc4c(=O)n(C56CCC(N)(CC5)C6)ccc4n3)cc(F)c2n1 [Compound 1492] ; test system MYB mRNA; AC50: 0.1 to 1 µM

Form: item O=C1c2ccc(-c3cn[nH]c3)cc2CCN1C1CCNCC1 [Compound 220] ; test system MYB mRNA; AC50: > 10 µM

Form: item Cc1cn2cc(-n3cnc4ccc(N(C)C5CCNCC5)cc4c3=O)cc(F)c2n1 [Compound 2200] ; test system MYB mRNA; AC50: > 10 µM

Form: item CCN1CC[C@@H](n2ncc3nc(-c4cc(C)c5nc(C)cn5n4)ccc3c2=O)CC12CC2 [Compound 1530] ; test system MYB mRNA; AC50: < 0.1 µM

Form: item Cc1cn2nc(-c3ccc4c(=O)n(C5CC(C)N[C@H](C)C5)ncc4n3)cc(C)c2n1 (stereo in doubt) [Compound 1536] ; test system MYB mRNA; AC50: 0.1 to 1 µM

Form: item Cc1cn2cc(-c3ccc4c(=O)n(C5CCNCC5)ncc4c3)cc(C(F)(F)F)c2n1 [Compound 262] ; test system MYB mRNA; AC50: 1 to 10 µM

Form: item Cc1cc(-c2ccc3c(=O)n(C4CCN(C)CC4)cnc3c2)cc2cn(C)nc12 [Compound 156] ; test system MYB mRNA; AC50: 1 to 10 µM

Form: item Cn1cc2cc(-c3ccc4c(=O)n(C5CCNC6(CC6)C5)ccc4n3)c(O)cc2n1 (stereo not shown) [Compound 1242] ; test system MYB mRNA; AC50: < 0.1 µM

Form: item Cc1cn2nc(-c3cc(N)c4c(=O)n([C@@H]5CCNC5)ccc4c3)cc(C)c2n1 [Compound 646] ; test system MYB mRNA; AC50: > 10 µM

Form: item Cc1cn2nc(-c3cc(F)c4c(=O)n(C5CCNC6(CC6)C5)ncc4c3)cc(C)c2n1 (stereo not shown) [Compound 312] ; test system MYB mRNA; AC50: < 0.1 µM

Form: item Cc1cn2nc(-c3ccc4c(=O)n(C5CCNCC5)ccc4c3)cc(Oc3ccc(F)cc3)c2n1 [Compound 546, hydrochloride] ; test system MYB mRNA; AC50: < 0.1 µM

Form: item Cc1cn2nc(-c3ccc4c(=O)n(C5CCN(C)CC5)ncc4n3)cc(C)c2n1 [Compound 1311] ; test system MYB mRNA; AC50: 0.1 to 1 µM

Form: item Cc1cc(-c2nc3ccc(N(C)C4CCN(C)CC4)cc3c(=O)[nH]2)cc2cn(C)nc12 [Compound 239] ; test system MYB mRNA; AC50: > 10 µM

Form: item Cc1c(O)c(-c2ncc3c(=O)n([C@H]4C[C@H]5COC[C@@H](C4)N5)ccc3n2)cc2cn(C)nc12 [Compound 1472] ; test system MYB mRNA; AC50: 0.1 to 1 µM

Form: item Cc1c(O)c(-c2ncc3c(=O)n(C4CCNC4)ccc3n2)cc2cn(C)nc12 (stereo in doubt) [Compound 1439] ; test system MYB mRNA; AC50: 0.1 to 1 µM
